EC30 listing for selected molecules.
systemUnderTest: Retinoic acid receptor gamma (Homo sapiens) (UniProt P13631)
Sequence (P13631 whole entry): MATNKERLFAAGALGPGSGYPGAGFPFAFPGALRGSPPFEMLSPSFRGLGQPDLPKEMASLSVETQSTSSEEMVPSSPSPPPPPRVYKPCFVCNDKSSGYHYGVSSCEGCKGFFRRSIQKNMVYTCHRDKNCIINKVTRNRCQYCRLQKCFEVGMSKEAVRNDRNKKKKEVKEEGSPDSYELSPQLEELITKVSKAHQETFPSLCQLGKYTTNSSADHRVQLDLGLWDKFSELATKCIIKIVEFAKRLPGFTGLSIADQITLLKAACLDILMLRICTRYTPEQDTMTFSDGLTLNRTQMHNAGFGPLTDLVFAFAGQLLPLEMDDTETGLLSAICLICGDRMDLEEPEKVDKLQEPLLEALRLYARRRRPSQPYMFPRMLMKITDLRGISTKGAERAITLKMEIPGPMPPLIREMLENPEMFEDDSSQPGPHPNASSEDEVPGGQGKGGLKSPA
protocolDescription: Transcriptional activation of Retinoic Acid Receptor gamma (RAR gamma)
Type: functional
observable: EC30 (nM)

chemicalSmiles	systemUnderTest	endpointUnit	experimentalValue
CC1(C)CCC(C)(C)c2nc(-c3cc(-c4ccc(C(=O)O)cc4)co3)cnc21	Retinoic acid receptor gamma (Homo sapiens) (UniProt P13631)	nM	0.76
CC1(C)CCC(C)(C)c2nc(C(=O)Nc3ccc(C(=O)O)cc3)cnc21	Retinoic acid receptor gamma (Homo sapiens) (UniProt P13631)	nM	1.6
CC1(C)CCC(C)(C)c2nc(-c3cc(-c4ccc(C(=O)O)cc4)[nH]n3)cnc21	Retinoic acid receptor gamma (Homo sapiens) (UniProt P13631)	nM	3.9
CC1(C)CCC(C)(C)c2nc(-c3cc(-c4ccc(C(=O)O)cc4)cs3)cnc21	Retinoic acid receptor gamma (Homo sapiens) (UniProt P13631)	nM	0.72
CC1(C)CCC(C)(C)c2nc(-c3ccc(-c4ccc(C(=O)O)cc4)o3)cnc21	Retinoic acid receptor gamma (Homo sapiens) (UniProt P13631)	nM	1.5
CC1(C)CCC(C)(C)c2nc(-c3cc(-c4ccc(C(=O)O)cc4)c[nH]3)cnc21	Retinoic acid receptor gamma (Homo sapiens) (UniProt P13631)	nM	1.6
CC1(C)CCC(C)(C)c2nc(-c3ccc(-c4ccc(C(=O)O)cc4)s3)cnc21	Retinoic acid receptor gamma (Homo sapiens) (UniProt P13631)	nM	2.1
CC1(C)CCC(C)(C)c2nc(-c3csc(-c4ccc(C(=O)O)cc4)n3)cnc21	Retinoic acid receptor gamma (Homo sapiens) (UniProt P13631)	nM	0.34

###

// each record: one item and its log10 IC50 for Retinoic acid receptor beta (Homo sapiens)
observable: log10 IC50 (log10 of the value in nM)

chemicalSmiles	systemUnderTest	log10 IC50
CC1(C)CCC(C)(C)c2nc(-c3ccc(-c4ccc(C(=O)O)cc4)s3)cnc21	Retinoic acid receptor beta (Homo sapiens)	1.56
CC1(C)CCC(C)(C)c2nc(-c3cc(-c4ccc(C(=O)O)cc4)cs3)cnc21	Retinoic acid receptor beta (Homo sapiens)	0.65
CC1(C)CCC(C)(C)c2nc(C(=O)Nc3ccc(C(=O)O)cc3)cnc21	Retinoic acid receptor beta (Homo sapiens)	2.15
CC1(C)CCC(C)(C)c2nc(-c3ccc(-c4ccc(C(=O)O)cc4)[nH]3)cnc21	Retinoic acid receptor beta (Homo sapiens)	2.36
CC1(C)CCC(C)(C)c2cc(-c3ccc(-c4ccc(C(=O)O)cc4)[nH]3)ccc21	Retinoic acid receptor beta (Homo sapiens)	2.00

###

systemUnderTest: Retinoic acid receptor beta (Homo sapiens)
Sequence (P10826 whole entry): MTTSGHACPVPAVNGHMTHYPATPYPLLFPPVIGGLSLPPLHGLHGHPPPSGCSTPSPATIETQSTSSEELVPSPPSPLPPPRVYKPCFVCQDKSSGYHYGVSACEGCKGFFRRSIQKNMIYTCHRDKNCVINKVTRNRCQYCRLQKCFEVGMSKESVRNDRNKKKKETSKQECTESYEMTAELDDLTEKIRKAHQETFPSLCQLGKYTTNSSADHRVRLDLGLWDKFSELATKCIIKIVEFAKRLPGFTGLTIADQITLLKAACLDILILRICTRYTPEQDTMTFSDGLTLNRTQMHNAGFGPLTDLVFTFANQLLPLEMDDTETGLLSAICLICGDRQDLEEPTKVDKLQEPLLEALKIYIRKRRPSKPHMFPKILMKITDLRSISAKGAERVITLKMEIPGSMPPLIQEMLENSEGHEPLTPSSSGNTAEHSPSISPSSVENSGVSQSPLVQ
protocolDescription: Transcriptional activation of Retinoic Acid Receptor beta (RAR beta)
Format: functional
observable: log10 of EC30 (log10 of the value in nM)

chemicalSmiles	log10 of EC30
CC1(C)CCC(C)(C)c2nc(-c3cc(-c4ccc(C(=O)O)cc4)c[nH]3)cnc21	0.65
CC1(C)CCC(C)(C)c2nc(-c3ccc(-c4ccc(C(=O)O)cc4)s3)cnc21	-0.14
CC1(C)CCC(C)(C)c2nc(C(=O)Nc3ccc(C(=O)O)cc3)cnc21	-0.40
CC1(C)CCC(C)(C)c2nc(-c3ccc(-c4ccc(C(=O)O)cc4)o3)cnc21	-0.42
CC1(C)CCC(C)(C)c2nc(-c3cc(-c4ccc(C(=O)O)cc4)cs3)cnc21	-0.30

###

systemUnderTest: Retinoic acid receptor gamma (Homo sapiens, UniProt P13631)
Sequence (P13631 whole entry): as the sequence (P13631 whole entry) above
protocolDescription: Binding affinity for Retinoic acid receptor gamma

chemicalSmiles	endpointUnit	IC50
CC1(C)CCC(C)(C)c2cc(-c3ccc(-c4ccc(C(=O)O)cc4)[nH]3)ccc21	nM	21
CC1(C)CCC(C)(C)c2nc(-c3ccc(-c4ccc(C(=O)O)cc4)[nH]3)cnc21	nM	310
